Target: human recombinant H-PGDS (Homo sapiens, UniProt O60760)
Sequence (O60760 whole entry): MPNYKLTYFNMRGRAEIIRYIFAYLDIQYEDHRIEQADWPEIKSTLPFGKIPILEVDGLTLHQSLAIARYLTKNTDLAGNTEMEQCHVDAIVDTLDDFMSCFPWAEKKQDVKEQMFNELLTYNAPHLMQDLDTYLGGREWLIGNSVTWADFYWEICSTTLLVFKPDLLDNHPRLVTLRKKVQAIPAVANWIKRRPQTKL
Assay: Slightly modified h-PGDS TBA enzyme assay (Examples 529, 565, 566, 574-588 and 591)
Assay type: biochemical
Conditions: slightly modified assay (Examples 529, 565, 566, 574-588 and 591); 1:40,000 human recombinant H-PGDS
pIC50: −log10 of the molar value. Counter-ions that a name gives are not always drawn.
Each entry gets false (0) if its pIC50 stays under 7, and true (1) if its pIC50 is 7 or above.

pIC50 >= 7 for CC(C)(C)OC(=O)N1[C@@H]2CC[C@H]1C[C@@H](NC(=O)c1ccc(-c3cccc(F)c3)nc1)C2 ?
true (1)

Then CNCCNC(=O)c1ccc(-c2cccc(F)c2)nc1 [Example 578, hydrochloride] ?
false (0)

Then O=C(CCNC(=O)c1ccc(-c2cccc(F)c2)nc1)N[C@H]1CC[C@H](O)CC1 ?
true (1)

Then O=C(NCCO)c1ccc(-c2cccc(F)c2)nc1 ?
false (0)

Then O=C(NCCN1CCCC1)c1ccc(-c2cccc(F)c2)nc1 ?
false (0)

Then CCOCCNC(=O)c1ccc(-c2cc(F)ccc2O)nc1 ?
false (0)

Then CCCN1[C@@H]2CC[C@H]1C[C@@H](NC(=O)c1ccc(-c3cccc(F)c3)nc1)C2 ?
false (0)

Then O=C(N[C@H]1C[C@H]2CC[C@@H](C1)N2)c1ccc(-c2cccc(F)c2)nc1 ?
false (0)

====

Molecular target: human recombinant H-PGDS (Homo sapiens, UniProt O60760)
Assay: Fluorescence Intensity h-PGDS TBA Enzyme Assay
Format: biochemical
Conditions: 1:175,000 human recombinant H-PGDS, highest inhibitor concentration typically 1 μM
Label Y when IC50 is strictly below 50 nM; otherwise label N.

Please indicate whether the reported IC50 of O=C(NCCc1cccs1)c1ccc(-c2ccc(F)cc2)nc1 is strictly below 50 nM.
N

Then COC(=O)[C@H](Cc1ccc(Cl)cc1)NC(=O)c1ccc(-c2ccc(F)cc2)nc1 ?
N

Then Cc1cc(=O)[nH]c(N2CCCC(CNC(=O)c3ccc(-c4cccc(F)c4)nc3)C2)n1 (centres unmarked) ?
Y

Then Cc1ccccc1CNC(=O)c1ccc(-c2ccccc2)nc1 [Example 151, N-(2-Methylbenzyl)-6-phenylnicotinamide] ?
Y

Then O=C(NCCc1nnc(-c2ccc(F)cc2)o1)c1ccc(-c2cccc(F)c2)nc1 ?
N

Then O=C(Nc1ccncc1)c1ccc(-c2cccc(F)c2)nc1 ?
Y

Then COCCN1C(=O)CCC1CCNC(=O)c1ccc(-c2cccc(F)c2)nc1 (centres unmarked) ?
Y

Then CN1CCC(CCNC(=O)c2ccc(-c3cccc(F)c3)nc2)CC1 ?
Y

====

Target: human recombinant H-PGDS (Homo sapiens)
Experiment: Fluorescence Intensity h-PGDS TBA Enzyme Assay
Type: biochemical
Settings: 1:175,000 human recombinant H-PGDS, highest inhibitor concentration typically 1 μM
RECORDED METRIC: pIC50
Please treat pIC50 as minus the base-10 logarithm of the molar concentration.

pIC50 of O=C(NCCC1CCCCO1)c1ccc(-c2ccc(F)cc2)nc1 (stereo not drawn) [Example 270] on human recombinant H-PGDS (Homo sapiens)?
6.67

Then COc1cccc(-c2ccc(C(=O)NCCC3CCCCO3)cn2)c1 (stereo not drawn) [Example 304] ?
6.75

Then O=C(NCCC1CCC(=O)N1CCN1CCCC1)c1ccc(-c2cccc(F)c2)nc1 (stereo not drawn) [Example 75] ?
7.32

Then CCOC(=O)C(CNC(=O)c1ccc(-c2ccc(F)cc2)nc1)c1c(F)cccc1F (stereo not drawn) [Example 457] ?
6.37

Then CN1CCc2nc(N3CCCC(CNC(=O)c4ccc(-c5cccc(F)c5)nc4)C3)ncc2C1 (stereo not drawn) [Example 89] ?
8.21

Then Cc1noc(CCNC(=O)c2ccc(-c3ccc(F)cc3)nc2)n1 [Example 496] ?
6.37

Then Cc1cn2cc(CNC(=O)c3ccc(-c4cccc(F)c4)nc3)nc2s1 [Example 94] ?
7.83

Then COc1cccc(-c2ccc(C(=O)Nc3cccnc3)cn2)c1 [Example 485] ?
6.70

Then O=C(N[C@@H](CO)c1ccccc1)c1ccc(-c2cccc(F)c2)nc1 [Example 78] ?
7.35

Then COc1cccc(-c2ccc(C(=O)NCc3ccccc3C)cn2)c1 [Example 333] ?
7.11

Then CC(C)(C)OCCNC(=O)c1ccc(-c2cccc(F)c2)nc1 [Example 134] ?
7.32

Then Cc1cccc(-c2ccc(C(=O)NCc3ccc(C(F)(F)F)cc3)cn2)c1 [Example 454] ?
6.83

Then Cc1cccc(-c2ccc(C(=O)NCc3cccc(S(C)(=O)=O)c3)cn2)c1 [Example 245] ?
7.94

Then Cc1cccc(NC(=O)c2ccc(-c3ccccc3)nc2)c1C [Example 527] ?
7.99

Then CNS(=O)(=O)c1ccc(CNC(=O)c2ccc(-c3cccc(F)c3)nc2)cc1 [Example 424] ?
7.17

Then O=C(NCc1ccc(Br)cc1)c1ccc(-c2cccc(F)c2)nc1 [Example 408] ?
6.99

Then Cc1cccc(-c2ccc(C(=O)NCc3ccc(F)cc3)cn2)c1 [Example 314] ?
7.10

Then COc1cccc(-c2ccc(C(=O)NCc3cccc(F)c3)cn2)c1 [Example 311] ?
6.43

Then O=C(NC1C(=O)NCCc2ccccc21)c1ccc(-c2cccc(F)c2)nc1 (stereo not drawn) [Example 120] ?
7.17

Then CC(C)[C@H](N)C(=O)NC(=O)c1ccc(-c2cccc(F)c2)nc1 [Example 526] ?
5.82

Then CCOC(=O)CC(NC(=O)c1ccc(-c2ccccc2)nc1)c1ccc(Cl)cc1 (stereo not drawn) [Example 401] ?
7.51

Then O=C(NCc1noc(C(=O)N2CC[C@H](O)C2)n1)c1ccc(-c2cccc(F)c2)nc1 [Example 199] ?
6.21

Then O=C(NCC1CCCN(C2CCOCC2)C1)c1ccc(-c2cccc(F)c2)nc1 (stereo not drawn) [Example 110] ?
7.06

Then CCOCC(O)CNC(=O)c1ccc(-c2cccc(F)c2)nc1 (stereo not drawn) [Example 34] ?
7.13

Then O=C(NCCNc1ccccc1)c1ccc(-c2ccccc2)nc1 [Example 520, N-(2-Anilinoethyl)-6-phenylnicotinamide] ?
8.06

Then COc1cccc(-c2ccc(C(=O)NC(C)c3ccccc3)cn2)c1 (stereo not drawn) [Example 339] ?
6.58

Then CCOC(=O)CCNC(=O)c1ccc(-c2cccc(F)c2)nc1 [Example 209] ?
7.88

Then N#CC(NC(=O)c1ccc(-c2ccccc2)nc1)C(=O)NCCN1CCOCC1 (stereo not drawn) [Example 376] ?
7.26

Then Cc1cc(O)nc(CNC(=O)c2ccc(-c3cccc(F)c3)nc2)n1 [Example 115] ?
7.02

Then CSc1ccc(CNC(=O)c2ccc(-c3cccc(C)c3)nc2)cc1 [Example 453] ?
6.99

Then O=C(NCc1cc(F)cc2c1OCOC2)c1ccc(-c2ccccc2)nc1 [Example 357] ?
8.76

Then O=C(NCC1CCCCO1)c1ccc(-c2cccc(F)c2)nc1 (stereo not drawn) [Example 525] ?
7.16

Then O=C(NCCCN1CCOCC1)c1ccc(-c2cccc(F)c2)nc1 [Example 39] ?
7.37

Then CNS(=O)(=O)c1ccc(CNC(=O)c2ccc(-c3cc(F)cc(F)c3)nc2)cc1 [Example 571] ?
7.21

Then COCCN1CCC(CNC(=O)c2ccc(-c3cccc(F)c3)nc2)CC1 [Example 19] ?
6.93
